# PROTOCOL_NOTES: Cytotoxicity against porcine PEK cells assessed as reduction in cell viability after 7 days by microscopic method
# Type: cell-based, Sus scrofa
# CONDITION_DESCRIPTION: pig
Record form. Attribute: CC50 at 168 h. Fill in for each entry.
Report the figure in µM without appending any unit label.

Note to self: CC50 at 168 h recorded for Cc1cc(O)c2c3c4c(cc(O)c13)C(C)(C)C(=O)c1c(O)cc(O)c(c1-4)C2=O was 3.7

Note to self: CC50 at 168 h recorded for O=c1[nH]cc(C#Cc2ccc3c4cccc5cccc(c6cccc2c63)c54)c(=O)[nH]1 was 37

====

Record form. Attribute: CC50 at 24 h. Fill in for each entry.
# PROTOCOL_NOTES: Cytotoxicity against porcine PEK cells assessed as reduction in cell viability after 24 hrs by microscopic method
# Format: cell-based, Sus scrofa
# CONDITION_DESCRIPTION: pig

Note to self: CC50 at 24 h recorded for Cc1cc(O)c2c3c4c(cc(O)c13)C(C)(C)C(=O)c1c(O)cc(O)c(c1-4)C2=O was 3.7 µM

Note to self: CC50 at 24 h recorded for O=c1[nH]c(=O)n([C@@H]2O[C@H](CO)[C@@H](O)[C@@H]2O)cc1C#Cc1ccc2c3cccc4cccc(c5cccc1c52)c43 was > 50 µM

Note to self: CC50 at 24 h recorded for O=C(c1ccc(-c2ccc3c4cccc5cccc(c6cccc2c63)c54)s1)N(CCO)CCO was > 70 µM

Note to self: CC50 at 24 h recorded for O=c1[nH]c(=O)n([C@@H]2O[C@H](CO)[C@@H](O)[C@H]2O)cc1C#Cc1ccc2c3cccc4cccc(c5cccc1c52)c43 was > 100 µM

Note to self: CC50 at 24 h recorded for O=c1[nH]cc(C#Cc2ccc3c4cccc5cccc(c6cccc2c63)c54)c(=O)[nH]1 was > 100 µM

Note to self: CC50 at 24 h recorded for CC(=O)Nc1ccc(C#Cc2ccc3c4cccc5cccc(c6cccc2c63)c54)cc1 was > 100 µM

Note to self: CC50 at 24 h recorded for O=C(NCCCCO)c1ccc(-c2ccc3c4cccc5cccc(c6cccc2c63)c54)s1 was > 70 µM

Note to self: CC50 at 24 h recorded for CCCCNC(=O)c1ccc(-c2ccc3c4cccc5cccc(c6cccc2c63)c54)s1 was > 100 µM

Note to self: CC50 at 24 h recorded for CO[C@@H]1[C@H](O)[C@@H](CO)O[C@H]1n1cc(C#Cc2ccc3c4cccc5cccc(c6cccc2c63)c54)c(=O)[nH]c1=O was > 50 µM

Note to self: CC50 at 24 h recorded for OC[C@H]1O[C@@H](n2cnc3c(NCc4c5ccccc5cc5ccccc45)ncnc32)[C@H](O)[C@@H]1O was > 50 µM

Note to self: CC50 at 24 h recorded for CN(C)c1ccc(C#Cc2ccc3c4cccc5cccc(c6cccc2c63)c54)cc1 was > 100 µM

Note to self: CC50 at 24 h recorded for O=C(O)c1ccc2c3cccc4cccc(c5cccc1c52)c43 was > 50 µM

Note to self: CC50 at 24 h recorded for O=C(O)c1ccc(-c2ccc3c4cccc5cccc(c6cccc2c63)c54)s1 was > 70 µM
